Origin of the recorded values: the supplement of paper PMC8671470

test system: NOMO-1; test: cell viability (% survival relative to DMSO control, bortezomib = 0%); higher = less cytotoxic; details: 10000 nM; 72 h
Cut-off 90% on cell viability: below means Satisfied, at or above means Not satisfied.

* CC(C)(O)CNc1nc(Nc2ccnc(C(F)(F)F)c2)nc(-c2cccc(C(F)(F)F)n2)n1 | Not satisfied
* O=c1oc2c(cc1O)oc(=O)c1cc(O)c(O)c(O)c12 | Not satisfied
* NS(=O)(=O)c1ccc(S(=O)(=O)Nc2cccc3c(Cl)c[nH]c23)cc1 | Satisfied

Asked: Threshold test, cell viability < 90%: CCCCCCCCCCCCCCOc1ccc(C(=O)O)o1
Given back: Not satisfied

Asked: Threshold test, cell viability < 90%: OCCN1C[C@H](O)[C@@H](O)[C@H](O)[C@H]1CO
Given back: Not satisfied

Asked: Threshold test, cell viability < 90%: CC(C)(CCCCCCCCCCC(C)(C)CC(=O)O)CC(=O)O
Given back: Not satisfied

Asked: Threshold test, cell viability < 90%: O=C(CCl)N(CCCNC(=O)C(F)(F)F)c1ccc([N+](=O)[O-])cc1
Given back: Satisfied

Asked: Threshold test, cell viability < 90%: CN(C)C(=O)n1nnnc1Cc1ccc(-c2ccccc2)cc1
Given back: Satisfied

Asked: Threshold test, cell viability < 90%: OCC(CO)N[C@H]1C[C@](O)(CO)[C@@H](O)[C@H](O)[C@H]1O
Given back: Not satisfied
